Reported TGI values for the following compounds.
System: SN12C renal
Assay explanation: NCI tumour cell line growth inhibition, 48 h

Returns the measured TGI for the input compound. Input: Cc1cc(C)c2c(n1)S(=O)(=O)N(CCCN1CCN(c3cccc(C(F)(F)F)c3)CC1)c1c-2nn(C)c1C
> 100 µM

Next compound up: CSc1ccc(NC(=S)NN(C)C)cc1
> 10 µM

Next compound up: CCOC(=O)NC(NC1=NCCS1)(C(=O)OCC)C(F)(F)F (stereo not drawn)
> 100 µM

Next compound up: CN(C)c1nncc2[nH]cnc12
> 100 µM

Next compound up: CC1(C)Cc2cc(C(=O)O)c3c(c2C1=O)COCC3
> 100 µM

Next compound up: Cc1[nH]c(=O)nc(N(CCO)/N=C/c2ccccc2Cl)c1C(=O)Nc1cc(Cl)cc(Cl)c1
> 100 µM

Next compound up: CCC1CCc2nc3sc(C(=O)Nc4cccc(F)c4)c(N)c3cc2C1 (stereo not drawn)
> 100 µM

Next compound up: CC(=C(C(N)=O)C(N)=O)C1C=C(c2cccs2)CC(c2ccc(Cl)cc2)=C1O (stereo not drawn)
> 100 µM

Next compound up: NCCCNCCCCN(CCCN)/[N+]([O-])=N\O
> 100 µM

Next compound up: COC(=O)CCCC(=O)O
> 100 µM

Continuing:
Returns the measured TGI for the input compound. Input: O=CC[C@H]1CCc2ccccc2C12CCC(=O)CC2
> 100 µM

Next compound up: COc1ccc2c(c1)n([O-])c1ccccc1[n+]2=O
> 100 µM

Next compound up: CC(C)(C)c1cc(C2=NN(c3ccccc3)C(c3ccccc3)C2)cc(C(C)(C)C)c1O (stereo not drawn)
> 100 µM

Reference for the values: PubChem BioAssay (NCI)
